Values compiled from PubChem BioAssay (NCI).

- methodSummary: NCI Yeast Anticancer Drug Screen. Data for the sgs1 mgt1 strain (AID 161)
- settings: S. cerevisiae sgs1 mgt1 strain, at 50.0 µM
This is part of a sample that, as a whole, favours compounds with a hit. Of some 79,000 tested, about 15% had one in any assay. Active and inactive are the calls of the source. No stated cut-off is given here; in the data, active means growth inhibition above about 70%; inactive means the rest.
Your answer must be one of the following: active, inactive

Here's what some known entries look like.
CCOP(=O)(CC)C(Cl)(Cl)Cl (stereo not given)	inactive
C[C@]12CC[C@H]3[C@@H](CCC4=CC(=O)CC[C@@]43C)[C@@H]1CC[C@@H]2OC(=O)c1cccc2c(=O)c3ccccc3[nH]c12	active
N#CC1CCCCC1	inactive
CCCC(C)OP(=O)(OCC)OCC (stereo not given)	inactive
CC(=O)NC(ON1C(=O)COc2ccccc21)C(Cl)(Cl)Cl (stereo not given)	inactive

Ask: Called result for Cn1c(=O)n(C2(C)C[Se]C2)c2ccccc21
Result: inactive

Ask: Which outcome was assigned to C(=C/[PH+](c1ccccc1)c1ccccc1)/[PH+](c1ccccc1)c1ccccc1.C(=C/[PH+](c1ccccc1)c1ccccc1)/[PH+](c1ccccc1)c1ccccc1.C(=C/[PH+](c1ccccc1)c1ccccc1)/[PH+](c1ccccc1)c1ccccc1.[Pt] in this test?
Result: inactive

Ask: Would you mind telling me which call this test gave c1ccc2c(c1)sc1sc3ccccc3[n+]12 ?
Result: inactive

Ask: Entry O=NO.O=NO.[NH-]C1CCCCC1[NH-].[Pd+2] (stereo not given) : call = ?
Result: inactive

Ask: Recorded test outcome, item Cc1cc[n+](C2C(=O)c3ccccc3C(=O)C2Nc2cc(Cl)ccc2Cl)cc1 (stereo not given)
Result: active
